- Tested on: Human immunodeficiency virus
- assay.text: Antiviral activity against HIV isolate 584.000 031 by replication assay
- Format: functional, organism-based
- protocol.conditions: Human immunodeficiency virus 1, isolate 584.000 031
observed.property: pIC50
Keep in mind that pIC50 stands for -log10 of concentration in molar terms.

Please review the entries below; each comes with its answer.
COc1ncc(OC)c2c(C(=O)C(=O)N3CCN(C(=O)c4ccccc4)CC3)c[nH]c12 :: 6.62
COc1cc(-c2cc(C)no2)ccc1C(=O)C(=O)N1CCN(C(=O)c2ccccc2)C[C@H]1C :: 5.05

Alright, here's another compound for you.
Data request: Could you tell me which pIC50 is on file for `COc1ccnc2[nH]cc(C(=O)C(=O)N3CCN(C(=O)c4ccccc4)C[C@H]3C)c12` ?
Data returned: 5.10

---

Here, each record is paired with measured pIC50 data.
- assay.text: Inhibition of HIV1 3B recombinant gp120/sCD4 binding interaction by ELISA
// pIC50: -log10(molar conc.)

C[C@@H]1CN(C(=O)c2ccccc2)CCN1C(=O)C(=O)c1ccc(-c2cc[nH]n2)cc1F :: 5.96

Data request: Can you look up the measured pIC50 of `C[C@@H]1CN(C(=O)c2ccccc2)CCN1C(=O)C(=O)c1ccc(-c2cc[nH]n2)cc1N` for me?
Data returned: 5.23

---

- Test system: Human immunodeficiency virus 1
- assay.text: Antiviral activity against HIV1 expressed in 293T cells assessed as protection against viral M33 envelope infection in human U87 cells coexpressing CD4, CCR5 receptors after 72 hrs by luciferase reporter gene pseudoviral assay
- Type: functional, organism-based
- protocol.conditions: Human immunodeficiency virus 1, HEK-293T
# note: exactly 1 µM is not below, so it is FALSE; use TRUE for IC50 strictly under it

Cc1cc(C(=O)C(=O)N2CCN(C(=O)c3ccccc3)C[C@H]2C)ccc1-c1cc[nH]n1 :: TRUE
C[C@@H]1CN(C(=O)c2ccccc2)CCN1S(=O)(=O)c1ccc(-c2ccccn2)s1 :: FALSE
COc1cc(C(=O)C(=O)N2CCN(C(=O)c3ccccc3)C[C@H]2C)ccc1-c1cc[nH]n1 :: TRUE

Data request: Problem: For the compound `C[C@@H]1CN(C(=O)c2ccccc2)CCN1C(=O)C(=O)c1cccc(-c2ccccn2)c1` , is IC50 under 1 µM?
Data returned: FALSE

Data request: One more compound: `Cc1cc(-c2ccc(C(=O)C(=O)N3CCN(C(=O)c4ccccc4)C[C@H]3C)c(O)c2)on1`
Data returned: FALSE

Data request: Ok, now CC1CN(C(=O)c2ccccc2)CCN1C(=O)C(=O)c1ccc(-c2cc(N)ncn2)cc1 (racemic)
Data returned: FALSE

Data request: What do we get for `CNc1cc(-c2cc[nH]n2)ccc1C(=O)C(=O)N1CCN(C(=O)c2ccccc2)C[C@H]1C` ?
Data returned: FALSE

Data request: Next entry: `C[C@@H]1CN(C(=O)c2ccccc2)CCN1S(=O)(=O)c1ccc(-c2cnco2)s1`
Data returned: FALSE

Data request: // next record `COc1cc(-c2ccn[nH]2)ccc1C(=O)C(=O)N1CCN(C(=O)c2ccccc2)C[C@H]1C`
Data returned: TRUE

---

- Test system: Human immunodeficiency virus
- assay.text: Antiviral activity against HIV isolate 584.000.098 by replication assay
- Type: functional, organism-based
- protocol.conditions: Human immunodeficiency virus 1, isolate 584.000.098
observed.property: IC50 (nM)
Just the number please, in nM, no unit attached.

COc1cc(-c2cc(C)no2)ccc1C(=O)C(=O)N1CCN(C(=O)c2ccccc2)C[C@H]1C :: 301

Data request: Using the record for `COc1ncc(OC)c2c(C(=O)C(=O)N3CCN(C(=O)c4ccccc4)CC3)c[nH]c12` , report its IC50.
Data returned: 425

Data request: Try the molecule `COc1ccnc2[nH]cc(C(=O)C(=O)N3CCN(C(=O)c4ccccc4)C[C@H]3C)c12`
Data returned: 394
